Data origin: patent US9388208B2

Below, each entry is listed alongside its reported IC50.
Target: RSV ribonucleoprotein (RNP) complexes (Human respiratory syncytial virus A, UniProt P28887)
Construct: The supernatant (S3) fraction, containing the enriched RSV RNP complexes, was collected; endogenous in cells; detergent-extracted crude S3 fraction
Sequence (P28887 whole entry): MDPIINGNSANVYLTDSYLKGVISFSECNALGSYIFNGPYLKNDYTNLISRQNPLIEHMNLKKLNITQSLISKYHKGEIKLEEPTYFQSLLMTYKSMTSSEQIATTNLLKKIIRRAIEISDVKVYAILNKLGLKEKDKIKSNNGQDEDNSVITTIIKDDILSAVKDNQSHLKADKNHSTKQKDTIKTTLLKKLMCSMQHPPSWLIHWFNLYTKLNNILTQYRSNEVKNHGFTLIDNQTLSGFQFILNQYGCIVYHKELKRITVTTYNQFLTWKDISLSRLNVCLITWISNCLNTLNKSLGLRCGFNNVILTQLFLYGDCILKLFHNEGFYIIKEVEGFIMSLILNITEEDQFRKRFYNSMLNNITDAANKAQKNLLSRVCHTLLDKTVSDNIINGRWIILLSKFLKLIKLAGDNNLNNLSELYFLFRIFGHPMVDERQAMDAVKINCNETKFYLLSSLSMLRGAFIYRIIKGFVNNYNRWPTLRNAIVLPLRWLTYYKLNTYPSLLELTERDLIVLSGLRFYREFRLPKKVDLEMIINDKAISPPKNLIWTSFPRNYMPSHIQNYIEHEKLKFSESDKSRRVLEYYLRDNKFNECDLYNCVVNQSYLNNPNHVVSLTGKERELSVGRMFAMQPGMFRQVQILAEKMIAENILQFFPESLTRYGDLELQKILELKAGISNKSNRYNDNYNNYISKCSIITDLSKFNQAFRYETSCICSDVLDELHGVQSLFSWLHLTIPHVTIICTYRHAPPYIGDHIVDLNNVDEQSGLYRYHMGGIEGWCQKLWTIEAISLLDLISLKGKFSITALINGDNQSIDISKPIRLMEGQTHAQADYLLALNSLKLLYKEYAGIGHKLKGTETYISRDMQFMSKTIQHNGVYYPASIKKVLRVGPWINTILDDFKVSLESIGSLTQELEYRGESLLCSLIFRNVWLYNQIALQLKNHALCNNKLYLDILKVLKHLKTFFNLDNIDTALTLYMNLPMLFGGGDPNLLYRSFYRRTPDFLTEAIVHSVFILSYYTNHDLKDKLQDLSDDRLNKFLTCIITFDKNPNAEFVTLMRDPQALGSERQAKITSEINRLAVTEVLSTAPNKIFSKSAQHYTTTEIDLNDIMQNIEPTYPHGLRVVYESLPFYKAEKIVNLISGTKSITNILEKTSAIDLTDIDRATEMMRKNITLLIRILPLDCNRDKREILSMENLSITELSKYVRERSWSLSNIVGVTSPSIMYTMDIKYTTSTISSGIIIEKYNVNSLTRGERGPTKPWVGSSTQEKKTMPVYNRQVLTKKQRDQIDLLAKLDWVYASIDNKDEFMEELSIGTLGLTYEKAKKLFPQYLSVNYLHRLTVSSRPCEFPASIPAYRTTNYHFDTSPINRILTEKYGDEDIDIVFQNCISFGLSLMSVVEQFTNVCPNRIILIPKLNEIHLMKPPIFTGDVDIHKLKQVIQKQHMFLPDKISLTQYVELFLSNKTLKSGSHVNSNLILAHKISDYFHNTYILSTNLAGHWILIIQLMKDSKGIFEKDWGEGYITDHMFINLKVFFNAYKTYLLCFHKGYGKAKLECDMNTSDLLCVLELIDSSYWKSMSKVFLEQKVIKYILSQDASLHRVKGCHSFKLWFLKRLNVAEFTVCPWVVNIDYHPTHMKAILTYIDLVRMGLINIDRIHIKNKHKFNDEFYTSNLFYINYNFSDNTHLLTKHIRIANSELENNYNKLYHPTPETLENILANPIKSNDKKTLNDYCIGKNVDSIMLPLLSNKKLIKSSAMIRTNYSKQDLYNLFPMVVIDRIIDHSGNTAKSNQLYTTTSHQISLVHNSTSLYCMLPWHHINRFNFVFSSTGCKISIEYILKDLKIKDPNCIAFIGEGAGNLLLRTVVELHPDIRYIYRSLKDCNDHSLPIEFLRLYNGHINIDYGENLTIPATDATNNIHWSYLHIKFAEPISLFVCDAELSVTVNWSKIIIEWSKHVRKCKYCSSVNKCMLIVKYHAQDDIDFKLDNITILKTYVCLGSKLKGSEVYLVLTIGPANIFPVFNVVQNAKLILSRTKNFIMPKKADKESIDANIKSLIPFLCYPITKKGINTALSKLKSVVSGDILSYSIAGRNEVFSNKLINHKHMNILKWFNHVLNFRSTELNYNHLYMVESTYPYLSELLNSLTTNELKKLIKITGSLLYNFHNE
Sequence (P03421 whole entry, further chain): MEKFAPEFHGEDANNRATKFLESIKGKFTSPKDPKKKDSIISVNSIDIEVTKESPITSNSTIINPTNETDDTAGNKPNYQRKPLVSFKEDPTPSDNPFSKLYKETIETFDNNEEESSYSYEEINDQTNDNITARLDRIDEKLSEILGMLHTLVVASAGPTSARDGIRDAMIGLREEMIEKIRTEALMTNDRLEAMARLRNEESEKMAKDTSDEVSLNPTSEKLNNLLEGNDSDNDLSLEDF
Assay: RSV RNP assay (inhibition of RSV RNP transcription)
Settings: 90 minute incubation at 30° C., total radiolabeled transcripts
Description: RSV ribonucleoprotein (RNP) complexes were prepared from a method modified from Mason at al (1). HEp-2 cells were plated at a density of 7.1×10^4 cells/cm^2 in MEM+10% fetal bovine serum (FBS) and allowed to attach overnight at 37° C. (5% CO2). Following attachment, the cells were infected with RSV A2 (M01=5) in 35 mL MEM+2% FBS. […] The supernatant (S3) fraction, containing the enriched RSV RNP complexes, was collected and the protein concentration determined by UV absorbance at 280 nm. […]
Enter your answer as a number in nM; do not include the unit.

Please review the entries below; each comes with its answer.
[
  {
    "molecule": "[N-]=[N+]=N[C@]1(COP(=O)(O)OP(=O)(O)OP(=O)(O)O)O[C@@H](c2ccc3c(N)nc(F)nn23)[C@H](F)[C@@H]1O",
    "readingUnit": "nM",
    "recordedNumber": 80
  },
  {
    "molecule": "N#C[C@]1(COP(=O)(O)OP(=O)(O)OP(=O)(O)O)O[C@@H](c2ccc3c(N)ncnn23)[C@H](F)[C@@H]1O",
    "readingUnit": "nM",
    "recordedNumber": 86
  }
]

Query `C#C[C@]1(COP(=O)(O)OP(=O)(O)OP(=O)(O)O)O[C@@H](c2ccc3c(N)ncnn23)[C@H](F)[C@@H]1O` yields IC50 of 1000

Data point: `N#C[C@]1(COP(=O)(O)OP(=O)(O)OP(=O)(O)O)O[C@@H](c2cc(F)c3c(N)ncnn23)[C@H](O)[C@@H]1O` ; IC50 = 22

Value of IC50 reported for the molecule `N#C[C@]1(COP(=O)(O)OP(=O)(O)OP(=O)(O)O)O[C@@H](c2ccc3c(N)ncnn23)[C@H](O)[C@@H]1O` is 25

IC50 reading for `CC[C@]1(COP(=O)(O)OP(=O)(O)OP(=O)(O)O)O[C@@H](c2ccc3c(N)ncnn23)[C@H](F)[C@@H]1O` : 420

Lookup result for `[N-]=[N+]=N[C@]1(COP(=O)(O)OP(=O)(O)OP(=O)(O)O)O[C@@H](c2cc(F)c3c(N)ncnn23)[C@H](F)[C@@H]1O` ; measured IC50: 86

For C[C@@]1(O)[C@H](O)[C@@H](COP(=O)(O)OP(=O)(O)OP(=O)(O)O)O[C@H]1c1ccc2c(N)ncnn12 [reference compound] the molecule record lists IC50 as 8500

Lab book: IC50 of `C=C[C@]1(COP(=O)(O)OP(=O)(O)OP(=O)(O)O)O[C@@H](c2ccc3c(N)ncnn23)[C@H](F)[C@@H]1O` noted as 560

Record `[N-]=[N+]=N[C@]1(COP(=O)(O)OP(=O)(O)OP(=O)(O)O)O[C@@H](c2ccc3c(N)ncnn23)[C@H](F)[C@@H]1O` , field IC50: 97

// `[N-]=[N+]=N[C@]1(COP(=O)(O)OP(=O)(O)OP(=O)(O)O)O[C@@H](c2ccc3c(N)ncnn23)[C@H](O)[C@@H]1O` : IC50 value = 120
